Tested on: vesicular stomatitis virus (VSV)
Test: microbe, parasite or virus in culture
Assay type: cell-based
Conditions: Vesicular stomatitis virus, in Primates, read-out: antiviral activity, VSV, zone diameter
# zone of inhibition at 100 µg/disc per entry

compound	zone of inhibition at 100 µg/disc (mm)
Nc1ncc(C2c3nc(N)[nH]c3CC(CNC(=O)c3cc(Br)c(Br)[nH]3)C2CNC(=O)c2cc(Br)c[nH]2)[nH]1 (centres unmarked) [Compound 5a, Bromoageliferin Acetate]	10
Nc1ncc([C@@H]2[C@@H](CNC(=O)c3cc(Br)c[nH]3)[C@H](CNC(=O)c3cc(Br)c[nH]3)[C@H]2c2cnc(N)[nH]2)[nH]1 (relative stereo) [Compound 2a, Sceptrin Acetate]	11
NC1=NC(=O)C(C2C(CNC(=O)c3cc(Br)c[nH]3)C(CNC(=O)c3cc(Br)c[nH]3)C2c2cnc(N)[nH]2)N1 (centres unmarked) [Compound 8a, Oxysceptrin Acetate]	8
Nc1ncc(C2c3nc(N)[nH]c3CC(CNC(=O)c3cc(Br)c[nH]3)C2CNC(=O)c2cc(Br)c[nH]2)[nH]1 (centres unmarked) [Compound 4a, Ageliferin Acetate]	10
Nc1ncc(C2c3nc(N)[nH]c3CC(CNC(=O)c3cc(Br)c(Br)[nH]3)C2CNC(=O)c2cc(Br)c(Br)[nH]2)[nH]1 (centres unmarked) [Compound 6a, Dibromoageliferin Acetate]	9

The reported numbers originate from patent US4737510A.
